# credit: the supplement of paper PMC9732359

Test: protein stability index of a GFP-peptide fusion (yeast GPS) (PSI 1-4); higher = more stable; sorted into four equal gates, so the index is relative within each strain
Details: ubr1∆
METRIC: protein stability index
I only need the number, thanks.

Consider the following illustrative entries.
LLKEKPNALKPLSESLR [RRP6] : 2.94
PLQSMDIEQLEYSRDCF [RPB3] : 2.93

Now look at this one.
Given item EAASITRKSLNNAVRFS [ECM29] , the value recorded as its protein stability index is 2.97

---

Assay: protein stability index of a GFP-peptide fusion (yeast GPS) (PSI 1-4); higher = more stable; sorted into four equal gates, so the index is relative within each strain
Conditions: doa10∆
A collection of sequences and their measured protein stability index
I only need the number, thanks.

Consider the following illustrative entries.
NSNTTNQNSSTGAGAFG [YJL041W/NSP1] : 3.04
LNATTAMDLAQMLIQGV [BRR2] : 3.08

Given item LLTNSNNGSSNNNTQNT [SNF5] , the value recorded as its protein stability index is 2.99

Given item SEKNKRQSKSSGKSNTS [ITC1] , the value recorded as its protein stability index is 3.06

Given item ICIVGGYDDFQEEGSFE [FAS2] , the value recorded as its protein stability index is 2.98
